Provenance of the data: patent US11485736B2

IC50 values, listed per item
target: USP1/UAF1 (Homo sapiens (Human)); test: Deubiquitination assay for USP1/UAF1 activity (ubiquitin-rhodamine 110); format: biochemical; settings: Table 2; 0.05 nM USP1/UAF1, 150 nM ubiquitin-rhodamine

COc1cccc(C2CC2)c1-c1ncc2cnn(Cc3ccc(-c4nc(C(F)(F)F)cn4C)cc3)c2n1 [drawing 724] :: < 0.01 µM
Cc1cc(C(F)(F)F)nn1-c1ccc(Cn2ncc3cnc(-c4cccnc4C(C)C)nc32)cc1 [drawing 713] :: 0.01 to 0.1 µM
CC(C)c1c(F)cccc1-c1ncc2cnn(Cc3ccc(-c4nc(C(F)(F)F)cn4C)cc3)c2n1 [drawing 728] :: < 0.01 µM
Cc1cc(C(F)F)nn1-c1ccc(Cn2ncc3cnc(-c4cccnc4C(C)C)nc32)cc1 [drawing 710] :: 0.01 to 0.1 µM
COc1nccc(C)c1-c1ncc2cnn(Cc3ccc(-c4nc(C(F)(F)F)cn4C)cc3)c2n1 [drawing 711] :: 0.01 to 0.1 µM
COc1ncnc(C)c1-c1ncc2cnn(Cc3ccc(-c4nc(C(F)(F)F)cn4C)cc3)c2n1 [drawing 712] :: 0.01 to 0.1 µM
CC(C)c1ncccc1-c1ncc2cnn(Cc3ccc(-c4nc(C(F)(F)F)cn4C)cc3)c2n1 [drawing 721] :: 0.01 to 0.1 µM
COc1ccccc1-c1ncc2cnn(Cc3ccc(-c4nc(C(F)(F)F)cn4C)cc3)c2n1 [drawing 715] :: 0.01 to 0.1 µM
CC(C)c1ccccc1-c1ncc2cnn(C(C)c3ccc(-c4nc(C(F)(F)F)cn4C)cc3)c2n1 (stereo not shown) [drawing 726] :: < 0.01 µM
CC(C)c1ccccc1-c1ncc2cnn(Cc3ccc(-c4nc(C(F)(F)F)cn4C)cc3)c2n1 [drawing 730] :: < 0.01 µM

q: Consider the compound COc1cccc(OC)c1-c1ncc2cnn(Cc3ccc(-c4nc(C(F)(F)F)cn4C)cc3)c2n1 [drawing 714] and give its measured IC50.
a: 0.01 to 0.1 µM

q: GET /values?readout=IC50&item= Cn1cc(C(F)(F)F)nc1-c1ccc(Cn2ncc3cnc(-c4ccccc4S(C)(=O)=O)nc32)cc1 [drawing 707]
a: 0.1 to 0.2 µM

q: Fill in: IC50 of CCS(=O)(=O)c1ccccc1-c1ncc2cnn(Cc3ccc(-c4nc(C(F)(F)F)cn4C)cc3)c2n1 [drawing 709] is ___
a: 0.1 to 0.2 µM

q: Any idea what IC50 was measured for COc1ncnc(C2CC2)c1-c1ncc2cnn(Cc3ccc(-n4nc(C(F)(F)F)cc4C)cc3)c2n1 [drawing 723] ?
a: < 0.01 µM

q: May I ask what IC50 has been recorded for Cc1nc(-c2ccccc2C(C)C)nc2c1cnn2Cc1ccc(-c2nc(C(F)(F)F)cn2C)cc1 ?
a: < 0.01 µM

q: For Cc1cc(C(F)(F)F)nn1-c1ccc(Cn2ncc3cnc(-c4ccccc4C(C)C)nc32)cc1 [drawing 716] , what is its reported IC50?
a: 0.01 to 0.1 µM

q: Give its IC50 value. Item: Cc1nn(Cc2ccc(-c3nc(C(F)(F)F)cn3C)cc2)c2nc(-c3ccccc3C(C)C)ncc12 [drawing 729]
a: < 0.01 µM

====

assay: ADME solubility determination at pH 2.0 and pH 7.4; assay type: physicochemical; settings: aqueous buffer, thermodynamic from solid; PBS pH 7.4, shaken at 25° C. for 24 hours, LC-MS/MS; read-out: Solubility at pH 7.4
measured_property: solubility at 24 h

Consider the worked cases shown below.
COc1ncnc(C2CC2)c1-c1ncc2cnn(Cc3ccc(-c4cn(C(C)C)c(C(F)(F)F)n4)cc3)c2n1 [Example 34] :: < 10 µM
COc1ncnc(C2CC2)c1-c1ncc2cnn(C(C)c3ccc(-c4nc(C(F)(F)F)cn4CCF)cc3)c2n1 (stereo not drawn) [Example 141] :: < 10 µM
CC(C)c1ccccc1-c1ncc2cnn(Cc3ccc(-c4nc(C(F)(F)F)cn4C4CN(C)C4)cc3)c2n1 [Example 152] :: > 10 µM
CCn1cc(C(F)(F)F)nc1-c1ccc(Cn2ncc3c(C)nc(-c4c(OC)ncnc4C4CC4)nc32)cc1 [Example 53] :: < 10 µM
COc1ncnc(C2CC2)c1-c1ncc2cnn(Cc3ccc(-c4nc(C(F)(F)F)c(OC)n4C(C)C)cc3)c2n1 [Example 166] :: < 10 µM

q: Reported solubility at 24 h, compound CCOc1ncnc(C2CC2)c1-c1ncc2c(OCC)nn(Cc3ccc(-c4nc(C(F)(F)F)cn4CC)cc3)c2n1 [Example 183] : ____
a: < 10 µM

q: Which value of solubility at 24 h has been reported for COc1ncnc(C2CC2)c1-c1ncc2cnn(Cc3ccc(-c4nc(C(F)(F)F)nn4C(C)C)cc3)c2n1 [Example 58] in the records?
a: < 10 µM

q: I would be grateful if you could share the reported solubility at 24 h for Cc1cc(C(F)(F)F)nn1-c1ccc(Cn2ncc3cnc(-c4cccnc4C(C)C)nc32)cc1 [Example 26] .
a: < 10 µM

====

target: USP1/UAF1 (Homo sapiens (Human)); experiment: Deubiquitination assay for USP1/UAF1 activity (ubiquitin-rhodamine 110); assay type: biochemical; conditions: Table 4; 0.05 nM USP1/UAF1, 150 nM ubiquitin-rhodamine
measured_property: IC50

COc1ncnc(C2CC2)c1-c1ncc2nc(C)n(Cc3ccc(-c4nc(C(F)(F)F)cn4C)cc3)c2n1 [drawing 821] :: 100 to 200 nM

q: Item CCn1cc(C(F)(F)F)nc1-c1ccc(Cn2nc(SCc3ccc(OC)cc3)c3cnc(-c4c(OC)ncnc4C4CC4)nc32)cc1 [drawing 801] has what recorded IC50?
a: 10 to 100 nM

q: # lookup: IC50 of COc1ncnc(C2CC2)c1-c1ncc2c(OC)nn([C@@H](C)c3ccc(-c4nc(C(F)(F)F)cn4CCF)cc3)c2n1 [drawing 809]
a: 10 to 100 nM

q: Requested field: IC50. Item: CCn1cc(C(F)(F)F)nc1-c1ccc(Cn2nc(OC)c3cnc(-c4c(OC)ncnc4C4CC4)nc32)cc1 [drawing 819]
a: 10 to 100 nM

====

target: USP1/UAF1 (Homo sapiens (Human), UniProt O94782); assay: Deubiquitination assay for USP1/UAF1 activity (ubiquitin-rhodamine 110); assay type: biochemical; conditions: Table 3; 0.05 nM USP1/UAF1, 150 nM ubiquitin-rhodamine
Sequence (O94782 whole entry): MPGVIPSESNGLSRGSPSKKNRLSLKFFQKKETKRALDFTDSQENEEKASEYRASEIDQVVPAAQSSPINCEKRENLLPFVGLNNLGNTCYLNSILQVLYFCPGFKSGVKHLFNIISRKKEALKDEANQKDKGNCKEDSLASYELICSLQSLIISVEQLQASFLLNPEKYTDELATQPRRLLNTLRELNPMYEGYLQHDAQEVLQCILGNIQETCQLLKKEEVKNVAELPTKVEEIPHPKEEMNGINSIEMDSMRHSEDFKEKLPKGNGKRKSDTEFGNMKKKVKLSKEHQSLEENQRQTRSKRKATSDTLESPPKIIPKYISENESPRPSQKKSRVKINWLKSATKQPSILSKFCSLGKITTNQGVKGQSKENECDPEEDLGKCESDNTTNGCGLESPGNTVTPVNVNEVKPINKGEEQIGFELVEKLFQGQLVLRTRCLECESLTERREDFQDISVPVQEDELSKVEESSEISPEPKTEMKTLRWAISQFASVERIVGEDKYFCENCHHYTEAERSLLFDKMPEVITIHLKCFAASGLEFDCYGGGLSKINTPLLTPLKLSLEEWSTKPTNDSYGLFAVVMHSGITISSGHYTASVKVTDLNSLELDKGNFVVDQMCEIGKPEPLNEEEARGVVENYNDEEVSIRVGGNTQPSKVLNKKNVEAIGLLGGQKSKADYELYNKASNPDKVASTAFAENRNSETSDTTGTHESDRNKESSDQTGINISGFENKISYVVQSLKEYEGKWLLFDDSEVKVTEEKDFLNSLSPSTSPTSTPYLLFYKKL
Sequence (Q8TAF3 whole entry partner): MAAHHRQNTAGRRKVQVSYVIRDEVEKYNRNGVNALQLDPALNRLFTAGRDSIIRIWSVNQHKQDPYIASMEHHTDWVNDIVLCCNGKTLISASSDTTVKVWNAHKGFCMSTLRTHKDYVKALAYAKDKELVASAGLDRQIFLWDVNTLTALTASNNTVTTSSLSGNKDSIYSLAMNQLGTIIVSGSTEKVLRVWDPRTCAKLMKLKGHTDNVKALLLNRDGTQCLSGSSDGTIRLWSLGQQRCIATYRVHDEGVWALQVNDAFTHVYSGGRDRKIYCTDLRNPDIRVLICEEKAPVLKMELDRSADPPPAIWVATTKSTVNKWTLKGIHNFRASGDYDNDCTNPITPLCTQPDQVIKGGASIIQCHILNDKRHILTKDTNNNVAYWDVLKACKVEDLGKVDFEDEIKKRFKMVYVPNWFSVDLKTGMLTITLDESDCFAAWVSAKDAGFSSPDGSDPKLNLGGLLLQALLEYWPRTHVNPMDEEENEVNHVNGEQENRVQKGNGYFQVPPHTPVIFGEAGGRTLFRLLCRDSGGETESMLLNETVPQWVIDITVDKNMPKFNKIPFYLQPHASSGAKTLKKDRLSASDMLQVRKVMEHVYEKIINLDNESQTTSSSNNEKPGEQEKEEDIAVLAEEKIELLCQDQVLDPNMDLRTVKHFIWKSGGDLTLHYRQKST
measured_property: IC50

For orientation, consider the following solved cases.
COc1ncnc(C2CC2)c1-c1ncc2cnn(Cc3ccc(-c4nc(C(F)(F)F)c[nH]4)cc3)c2n1 [drawing 765] :: 10 to 100 nM
COc1ncnc(C2(C)CC2)c1-c1ncc2cnn(Cc3ccc(-c4nc(C(F)(F)F)cn4C)cc3)c2n1 [drawing 769] :: 10 to 100 nM
COc1ncnc(C2CC2)c1-c1ncc2cnn(Cc3ccc(-c4nc(OC)n(C)n4)cc3)c2n1 :: > 200 nM
CCn1cc(C(F)(F)F)nc1-c1ccc(Cn2ncc3cnc(-c4c(OC)ncnc4OC)nc32)cc1 [drawing 755] :: 10 to 100 nM
CSc1ncnc(C)c1-c1ncc2cnn(Cc3ccc(-n4nc(C(F)(F)F)cc4C)cc3)c2n1 [drawing 779] :: 10 to 100 nM
CCn1cc(C(F)(F)F)nc1-c1ccc(Cn2ncc3cnc(-c4c(OC5CCC5)ncnc4C4CC4)nc32)cc1 [drawing 752] :: 10 to 100 nM
COc1ncnc(C2CC2)c1-c1ncc2cnn([C@@H](C)c3ccc(-c4nc(C(F)(F)F)cn4C)cc3)c2n1 (single isomer, unassigned) [drawing 743] :: 10 to 100 nM
COc1ncnc(C2CC2)c1-c1ncc2cnn(Cc3ccc(-n4nc(C(F)F)cc4C)cc3)c2n1 [drawing 762] :: 10 to 100 nM
Cn1cc(C(F)(F)F)nc1-c1ccc(Cn2ncc3cnc(-c4c(OCc5ccccc5)ncnc4C4CC4)nc32)cc1 :: > 200 nM
COc1ncnc(C2CC2)c1-c1ncc2cnn(Cc3ccc(-c4nc(C(F)(F)F)c5n4CCNC5)cc3)c2n1 [drawing 773] :: 10 to 100 nM

q: Give USP1/UAF1 (Homo sapiens (Human), UniProt O94782) IC50 for COc1ncnc(C2CC2)c1-c1ncc2cnn(Cc3ccc(-n4nc(C(F)(F)F)cc4OC)nc3)c2n1 [drawing 768]
a: 10 to 100 nM

q: Recorded IC50 for COc1nc(C)c(-c2ncc3cnn(Cc4ccc(-c5nc(C(F)(F)F)cn5C)cc4)c3n2)c(OC)n1 [drawing 793] with USP1/UAF1 (Homo sapiens (Human), UniProt O94782), please?
a: > 200 nM

q: Lookup: IC50 / USP1/UAF1 (Homo sapiens (Human), UniProt O94782) / Cc1cc(C(F)(F)F)nn1-c1ccc(Cn2ncc3cnc(-c4cccnc4C#N)nc32)cc1 [drawing 797]
a: > 200 nM

q: Form field - read-out: IC50; system: USP1/UAF1 (Homo sapiens (Human), UniProt O94782); submitted item: CCn1cc(C(F)(F)F)nc1-c1ccc(Cn2ncc3cnc(-c4c(OC)ncnc4C4CC4)nc32)cc1 [drawing 738]
a: 10 to 100 nM

q: Could you share what IC50 was measured for CCn1cc(C(F)(F)F)nc1-c1ccc([C@H](C)n2ncc3cnc(-c4c(OC)ncnc4C4CC4)nc32)cc1 (single isomer, unassigned) [drawing 751] , tested on USP1/UAF1 (Homo sapiens (Human), UniProt O94782)?
a: 10 to 100 nM
